- experimental-system: uPA (Homo sapiens, UniProt P00749)
- protocol-description: FRET peptide cleavage efficiency with uPA
- Format: biochemical
- experimental-context: t = 15 min; 200 uM linker, 1 ug/ml protease, 37° C., buffer A pH 8.5
Square brackets hold non-standard residues; d marks the D form. Ends that are not written are not given here. Tyr(3-NO2) = N[C@@H](Cc1ccc(O)c([N+](=O)[O-])c1)C(=O)O; 2Abz = Nc1ccccc1C(=O)O
Parameter: % cleavage uPA t = 15 min. Scope: all listed entries.
Express the result in % but write the number alone.

Some solved entries appear below for comparison.
query: Look up % cleavage uPA t = 15 min: SPLGLAGS ([2Abz]SPLGLAGS[Tyr(3-NO2)]-NH2) [LNK030]
result: 0

query: Input SSRGPYMLQG ([2Abz]SSRGPYMLQG[Tyr(3-NO2)]-NH2) [LNK022]
result: 0

query: Input SSRAVFRKNLGPLGLAG ([2Abz]SSRAVFRKNLGPLGLAG[Tyr(3-NO2)]-NH2) [LNK002]
result: 5

query: Input SGRVLTLRKAGPAGLVG ([2Abz]SGRVLTLRKAGPAGLVG[Tyr(3-NO2)]-NH2) [LNK011]
result: 6

query: Input SGRVLPYAMTA ([2Abz]SGRVLPYAMTA[Tyr(3-NO2)]-NH2) [LNK024]
result: 1

New cases:
query: Look up % cleavage uPA t = 15 min: SSQYSSPG ([2Abz]SSQYSSPG[Tyr(3-NO2)]-NH2) [LNK069]
result: 0

###

- experimental-system: uPA (Homo sapiens)
- protocol-description: FRET peptide cleavage efficiency with uPA
- Assay type: biochemical
- experimental-context: t = 60 min; 200 uM linker, 1 ug/ml protease, 37° C., buffer A pH 8.5
Square brackets hold non-standard residues; d marks the D form. Ends that are not written are not given here. Tyr(3-NO2) = N[C@@H](Cc1ccc(O)c([N+](=O)[O-])c1)C(=O)O; 2Abz = Nc1ccccc1C(=O)O
Parameter: % cleavage uPA t = 60 min. Scope: all listed entries.
Express the result in % but write the number alone.

Some solved entries appear below for comparison.
query: For the record RQRRSPLGLAG ([2Abz]RQRRSPLGLAG[Tyr(3-NO2)]-NH2) [LNK010] , what value of % cleavage uPA t = 60 min is listed for uPA (Homo sapiens)?
result: 1

query: Input SGRVANYFGKL ([2Abz]SGRVANYFGKL[Tyr(3-NO2)]-NH2) [LNK054]
result: 100

query: Input RGRRVANPLGLAGSG ([2Abz]RGRRVANPLGLAGSG[Tyr(3-NO2)]-NH2) [LNK050]
result: 3

query: Input SGRVLGPLNLSG ([2Abz]SGRVLGPLNLSG[Tyr(3-NO2)]-NH2) [LNK008]
result: 1

Next:
query: For the record SGRVLTLRKAPWGLLE ([2Abz]SGRVLTLRKAPWGLLE[Tyr(3-NO2)]-NH2) [LNK004] , what value of % cleavage uPA t = 60 min is listed for uPA (Homo sapiens)?
result: 16

###

- experimental-system: MMP-9 (Homo sapiens, UniProt P14780)
- Construct: purchased SIGMA PF024
- Sequence (P14780 94-707): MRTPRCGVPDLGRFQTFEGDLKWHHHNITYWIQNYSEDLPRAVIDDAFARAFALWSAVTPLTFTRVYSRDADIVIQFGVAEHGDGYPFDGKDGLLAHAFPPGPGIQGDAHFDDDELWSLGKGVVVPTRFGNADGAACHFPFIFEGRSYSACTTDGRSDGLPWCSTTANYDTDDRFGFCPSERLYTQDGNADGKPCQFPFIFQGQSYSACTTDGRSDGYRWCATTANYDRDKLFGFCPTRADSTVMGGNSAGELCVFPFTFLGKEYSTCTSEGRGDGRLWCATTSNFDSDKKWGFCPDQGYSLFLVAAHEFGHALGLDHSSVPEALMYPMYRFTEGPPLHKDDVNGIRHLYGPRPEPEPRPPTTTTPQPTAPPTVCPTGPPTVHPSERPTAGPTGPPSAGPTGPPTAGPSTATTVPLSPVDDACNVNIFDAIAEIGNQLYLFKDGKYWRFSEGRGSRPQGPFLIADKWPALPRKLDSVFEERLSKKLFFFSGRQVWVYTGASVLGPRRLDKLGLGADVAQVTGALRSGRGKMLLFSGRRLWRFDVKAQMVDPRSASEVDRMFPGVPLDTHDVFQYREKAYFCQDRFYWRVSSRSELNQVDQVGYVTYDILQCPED
- protocol-description: FRET peptide cleavage efficiency with MMP-9 (standard pH 7.5; also pH 6.5)
- Type: biochemical
- experimental-context: t = 120 min (Table 9)
Square brackets hold non-standard residues; d marks the D form. Ends that are not written are not given here. Tyr(3-NO2) = N[C@@H](Cc1ccc(O)c([N+](=O)[O-])c1)C(=O)O; Nle = CCCC[C@H](N)C(=O)O; 2Abz = Nc1ccccc1C(=O)O
property: % cleavage MMP-9 t = 120 min (%)
Express the result in % but write the number alone.

Some solved entries appear below for comparison.
query: For the record SGRVLRKAGPQPLVD ([2Abz]SGRVLRKAGPQPLVD[Tyr(3-NO2)]-NH2) [LNK003] , what value of % cleavage MMP-9 t = 120 min is listed for MMP-9 (Homo sapiens, UniProt P14780)?
result: 93

query: Input SGRVANLVG (not fully specified (N-terminus, C-terminus)) [LNK017]
result: 100

New cases:
query: For the record RGRKPY-Nle-LQG ([2Abz]RGRKPY[Nle]LQG[Tyr(3-NO2)]-NH2) [LNK036] , what value of % cleavage MMP-9 t = 120 min is listed for MMP-9 (Homo sapiens, UniProt P14780)?
result: 100

query: Input RGRRVANPLGLAGSG ([2Abz]RGRRVANPLGLAGSG[Tyr(3-NO2)]-NH2) [LNK050]
result: 100

query: Input RGRRPLGLAGGSG ([2Abz]RGRRPLGLAGGSG[Tyr(3-NO2)]-NH2) [LNK051]
result: 100

query: Input RGRKSPY-Nle-LQG ([2Abz]RGRKSPY[Nle]LQG[Tyr(3-NO2)]-NH2) [LNK038]
result: 97

query: Input GSGSGSGS ([2Abz]GSGSGSGS[Tyr(3-NO2)]-NH2) [LNK064]
result: 0

query: Input RGRKSQPLVD ([2Abz]RGRKSQPLVD[Tyr(3-NO2)]-NH2) [LNK041]
result: 1

query: Input SGRVAPQPLVD (not fully specified (N-terminus, C-terminus)) [LNK046]
result: 92

Data provenance is patent US20240400614A1.
